# TARGET_OR_TEST_SYSTEM: Cellular tumor antigen p53 (Homo sapiens) (UniProt P04637)
# Sequence (P04637 whole entry, looked up): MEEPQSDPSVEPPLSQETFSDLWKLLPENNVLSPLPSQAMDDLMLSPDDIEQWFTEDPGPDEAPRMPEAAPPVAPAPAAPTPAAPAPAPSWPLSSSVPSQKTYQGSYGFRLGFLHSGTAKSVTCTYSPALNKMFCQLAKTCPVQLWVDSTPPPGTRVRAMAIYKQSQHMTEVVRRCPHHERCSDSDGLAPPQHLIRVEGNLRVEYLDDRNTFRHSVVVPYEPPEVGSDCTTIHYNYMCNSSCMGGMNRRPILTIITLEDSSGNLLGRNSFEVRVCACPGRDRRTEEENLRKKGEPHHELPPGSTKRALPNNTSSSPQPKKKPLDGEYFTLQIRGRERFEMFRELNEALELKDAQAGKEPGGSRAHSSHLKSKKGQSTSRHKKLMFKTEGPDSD
# ASSAY_DETAILS: ATG_p53_CIS: Attagene CIS-FACTORIAL HepG2 Assay for human p53 Transcription Factor (AID 2282994)
# RECORDED_CONDITIONS: HepG2 p53 cis-element reporter, Attagene mRNA; actives raise or lower the signal
Active and inactive are the calls of the source. How the source made its calls: active means hit-call score of the fitted dose curve at least 0.9, where 1 is the maximum; inactive means score below 0.9.
Labels: active, inactive

{"COMPOUND": "c1ccc2[nH]cnc2c1", "TARGET_OR_TEST_SYSTEM": "Cellular tumor antigen p53 (Homo sapiens) (UniProt P04637)", "CAT": "inactive"}
{"COMPOUND": "C[C@H](CCC(=O)NCC(=O)O)[C@H]1CC[C@H]2[C@@H]3[C@H](O)C[C@@H]4C[C@H](O)CC[C@]4(C)[C@H]3C[C@H](O)[C@]12C", "TARGET_OR_TEST_SYSTEM": "Cellular tumor antigen p53 (Homo sapiens) (UniProt P04637)", "CAT": "inactive"}
{"COMPOUND": "CC(=O)c1c(C)c([N+](=O)[O-])c(C(C)(C)C)c([N+](=O)[O-])c1C", "TARGET_OR_TEST_SYSTEM": "Cellular tumor antigen p53 (Homo sapiens) (UniProt P04637)", "CAT": "inactive"}
{"COMPOUND": "Cc1cc(CCC(=O)OCCOCCOCCOC(=O)CCc2cc(C)c(O)c(C(C)(C)C)c2)cc(C(C)(C)C)c1O", "TARGET_OR_TEST_SYSTEM": "Cellular tumor antigen p53 (Homo sapiens) (UniProt P04637)", "CAT": "inactive"}
{"COMPOUND": "O=c1[nH]c(=O)c2cn[nH]c2[nH]1", "TARGET_OR_TEST_SYSTEM": "Cellular tumor antigen p53 (Homo sapiens) (UniProt P04637)", "CAT": "inactive"}
{"COMPOUND": "Cc1ccc(C)o1", "TARGET_OR_TEST_SYSTEM": "Cellular tumor antigen p53 (Homo sapiens) (UniProt P04637)", "CAT": "inactive"}
{"COMPOUND": "CCCCCCCCCCCCCCN(CCO)CCO", "TARGET_OR_TEST_SYSTEM": "Cellular tumor antigen p53 (Homo sapiens) (UniProt P04637)", "CAT": "inactive"}
{"COMPOUND": "CC/C=C\\CCOC(=O)CC", "TARGET_OR_TEST_SYSTEM": "Cellular tumor antigen p53 (Homo sapiens) (UniProt P04637)", "CAT": "inactive"}
{"COMPOUND": "COc1ccc(N)c([N+](=O)[O-])c1", "TARGET_OR_TEST_SYSTEM": "Cellular tumor antigen p53 (Homo sapiens) (UniProt P04637)", "CAT": "inactive"}
{"COMPOUND": "N#Cc1ccc(CC(=O)c2cccc(C(F)(F)F)c2)cc1", "TARGET_OR_TEST_SYSTEM": "Cellular tumor antigen p53 (Homo sapiens) (UniProt P04637)", "CAT": "inactive"}
{"COMPOUND": "COc1ccc(N=Nc2cc(C)c(N=Nc3ccc(S(=O)(=O)O)cc3)cc2OC)cc1", "TARGET_OR_TEST_SYSTEM": "Cellular tumor antigen p53 (Homo sapiens) (UniProt P04637)", "CAT": "inactive"}
{"COMPOUND": "C[Si]1(C)O[Si](C)(C)O[Si](C)(C)O1", "TARGET_OR_TEST_SYSTEM": "Cellular tumor antigen p53 (Homo sapiens) (UniProt P04637)", "CAT": "inactive"}
{"COMPOUND": "CC(=O)CC(=O)Nc1ccc(C)cc1C", "TARGET_OR_TEST_SYSTEM": "Cellular tumor antigen p53 (Homo sapiens) (UniProt P04637)", "CAT": "inactive"}
{"COMPOUND": "CC(C)CCOC(=O)c1ccccc1", "TARGET_OR_TEST_SYSTEM": "Cellular tumor antigen p53 (Homo sapiens) (UniProt P04637)", "CAT": "inactive"}
{"COMPOUND": "C1=CC2C3C=CC(C3)C2C1 (configuration not stated)", "TARGET_OR_TEST_SYSTEM": "Cellular tumor antigen p53 (Homo sapiens) (UniProt P04637)", "CAT": "inactive"}
{"COMPOUND": "CCCCCC(C=O)=Cc1ccccc1", "TARGET_OR_TEST_SYSTEM": "Cellular tumor antigen p53 (Homo sapiens) (UniProt P04637)", "CAT": "active"}
{"COMPOUND": "CCCCCCCCc1ccc(S(=O)(=O)O)cc1", "TARGET_OR_TEST_SYSTEM": "Cellular tumor antigen p53 (Homo sapiens) (UniProt P04637)", "CAT": "inactive"}
{"COMPOUND": "Nc1ccc(NCCO)c([N+](=O)[O-])c1", "TARGET_OR_TEST_SYSTEM": "Cellular tumor antigen p53 (Homo sapiens) (UniProt P04637)", "CAT": "inactive"}
{"COMPOUND": "O=C1OC(=O)c2c(Cl)c(Cl)c(Cl)c(Cl)c21", "TARGET_OR_TEST_SYSTEM": "Cellular tumor antigen p53 (Homo sapiens) (UniProt P04637)", "CAT": "inactive"}
{"COMPOUND": "CC(C)c1ccccc1O", "TARGET_OR_TEST_SYSTEM": "Cellular tumor antigen p53 (Homo sapiens) (UniProt P04637)", "CAT": "inactive"}
{"COMPOUND": "CCOc1ccccc1O", "TARGET_OR_TEST_SYSTEM": "Cellular tumor antigen p53 (Homo sapiens) (UniProt P04637)", "CAT": "inactive"}
{"COMPOUND": "CC(C)C(OC(=O)c1ccccc1)C(C)(C)COC(=O)c1ccccc1 (configuration not stated)", "TARGET_OR_TEST_SYSTEM": "Cellular tumor antigen p53 (Homo sapiens) (UniProt P04637)", "CAT": "inactive"}
{"COMPOUND": "C1CCOC1", "TARGET_OR_TEST_SYSTEM": "Cellular tumor antigen p53 (Homo sapiens) (UniProt P04637)", "CAT": "inactive"}
{"COMPOUND": "C=CC(=O)OCCCC", "TARGET_OR_TEST_SYSTEM": "Cellular tumor antigen p53 (Homo sapiens) (UniProt P04637)", "CAT": "inactive"}
{"COMPOUND": "NC1CCCCC1N (configuration not stated)", "TARGET_OR_TEST_SYSTEM": "Cellular tumor antigen p53 (Homo sapiens) (UniProt P04637)", "CAT": "inactive"}
{"COMPOUND": "CCCC[O][Al]([O]CCCC)[O]CCCC", "TARGET_OR_TEST_SYSTEM": "Cellular tumor antigen p53 (Homo sapiens) (UniProt P04637)", "CAT": "inactive"}
{"COMPOUND": "FC(F)(F)COCC(F)(F)F", "TARGET_OR_TEST_SYSTEM": "Cellular tumor antigen p53 (Homo sapiens) (UniProt P04637)", "CAT": "inactive"}
{"COMPOUND": "CC(C)CCCCCCc1ccc(OCCOCCO)cc1", "TARGET_OR_TEST_SYSTEM": "Cellular tumor antigen p53 (Homo sapiens) (UniProt P04637)", "CAT": "inactive"}
{"COMPOUND": "COC(C)(C)CC(C)=O", "TARGET_OR_TEST_SYSTEM": "Cellular tumor antigen p53 (Homo sapiens) (UniProt P04637)", "CAT": "inactive"}
{"COMPOUND": "Cc1ccc2c(c1)C(=O)OC2=O", "TARGET_OR_TEST_SYSTEM": "Cellular tumor antigen p53 (Homo sapiens) (UniProt P04637)", "CAT": "inactive"}
{"COMPOUND": "Clc1ccc(C(c2ccccc2Cl)C(Cl)Cl)cc1 (configuration not stated)", "TARGET_OR_TEST_SYSTEM": "Cellular tumor antigen p53 (Homo sapiens) (UniProt P04637)", "CAT": "inactive"}
{"COMPOUND": "CCCC(=O)C(CC)Sc1ccoc1C (configuration not stated)", "TARGET_OR_TEST_SYSTEM": "Cellular tumor antigen p53 (Homo sapiens) (UniProt P04637)", "CAT": "inactive"}
{"COMPOUND": "CC(C)=CCCC(C)CCOC=O (configuration not stated)", "TARGET_OR_TEST_SYSTEM": "Cellular tumor antigen p53 (Homo sapiens) (UniProt P04637)", "CAT": "inactive"}
{"COMPOUND": "COc1ccc(OC)c(N=Nc2c(O)ccc3ccccc23)c1", "TARGET_OR_TEST_SYSTEM": "Cellular tumor antigen p53 (Homo sapiens) (UniProt P04637)", "CAT": "inactive"}
{"COMPOUND": "C/C=C(\\C)C(=O)OCCc1ccccc1", "TARGET_OR_TEST_SYSTEM": "Cellular tumor antigen p53 (Homo sapiens) (UniProt P04637)", "CAT": "inactive"}
{"COMPOUND": "NC(=S)NNC(N)=S", "TARGET_OR_TEST_SYSTEM": "Cellular tumor antigen p53 (Homo sapiens) (UniProt P04637)", "CAT": "inactive"}
{"COMPOUND": "C=C(C)C(=O)OCC(CC)(COC(=O)C(=C)C)COC(=O)C(=C)C", "TARGET_OR_TEST_SYSTEM": "Cellular tumor antigen p53 (Homo sapiens) (UniProt P04637)", "CAT": "inactive"}
{"COMPOUND": "COc1cccc(OC)c1O", "TARGET_OR_TEST_SYSTEM": "Cellular tumor antigen p53 (Homo sapiens) (UniProt P04637)", "CAT": "inactive"}
{"COMPOUND": "Cc1cc(C)nc(NS(=O)(=O)c2ccc(N)cc2)n1", "TARGET_OR_TEST_SYSTEM": "Cellular tumor antigen p53 (Homo sapiens) (UniProt P04637)", "CAT": "inactive"}
{"COMPOUND": "CC=Cc1ccc(OCC)c(O)c1", "TARGET_OR_TEST_SYSTEM": "Cellular tumor antigen p53 (Homo sapiens) (UniProt P04637)", "CAT": "inactive"}
{"COMPOUND": "CCCCC(CC)C(=O)OC(C)C (configuration not stated)", "TARGET_OR_TEST_SYSTEM": "Cellular tumor antigen p53 (Homo sapiens) (UniProt P04637)", "CAT": "inactive"}
{"COMPOUND": "CCCC(C)C(O)CC (configuration not stated)", "TARGET_OR_TEST_SYSTEM": "Cellular tumor antigen p53 (Homo sapiens) (UniProt P04637)", "CAT": "inactive"}
{"COMPOUND": "CCCCOCC", "TARGET_OR_TEST_SYSTEM": "Cellular tumor antigen p53 (Homo sapiens) (UniProt P04637)", "CAT": "inactive"}
{"COMPOUND": "ON=C1CCCCC1", "TARGET_OR_TEST_SYSTEM": "Cellular tumor antigen p53 (Homo sapiens) (UniProt P04637)", "CAT": "inactive"}
{"COMPOUND": "O=C(O)c1cccnc1C(=O)O", "TARGET_OR_TEST_SYSTEM": "Cellular tumor antigen p53 (Homo sapiens) (UniProt P04637)", "CAT": "inactive"}
{"COMPOUND": "CCCC(=O)OC(C)(C)Cc1ccccc1", "TARGET_OR_TEST_SYSTEM": "Cellular tumor antigen p53 (Homo sapiens) (UniProt P04637)", "CAT": "inactive"}
{"COMPOUND": "CCCOC(=O)c1c(Cl)c(Cl)c(Cl)c(Cl)c1C(=O)OCCC", "TARGET_OR_TEST_SYSTEM": "Cellular tumor antigen p53 (Homo sapiens) (UniProt P04637)", "CAT": "inactive"}
{"COMPOUND": "COC(C)(C)CCCC(C)CC=O (configuration not stated)", "TARGET_OR_TEST_SYSTEM": "Cellular tumor antigen p53 (Homo sapiens) (UniProt P04637)", "CAT": "inactive"}
{"COMPOUND": "CCOC(=O)CCc1ccccc1", "TARGET_OR_TEST_SYSTEM": "Cellular tumor antigen p53 (Homo sapiens) (UniProt P04637)", "CAT": "inactive"}
{"COMPOUND": "Cc1cccc(Nc2ccccc2)c1", "TARGET_OR_TEST_SYSTEM": "Cellular tumor antigen p53 (Homo sapiens) (UniProt P04637)", "CAT": "inactive"}
{"COMPOUND": "Clc1cc(Cl)c(-c2c(Cl)c(Cl)cc(Cl)c2Cl)cc1Cl", "TARGET_OR_TEST_SYSTEM": "Cellular tumor antigen p53 (Homo sapiens) (UniProt P04637)", "CAT": "inactive"}
{"COMPOUND": "CCC(Cl)C(Cl)C(Cl)CC(Cl)C(Cl)C(C)Cl (configuration not stated)", "TARGET_OR_TEST_SYSTEM": "Cellular tumor antigen p53 (Homo sapiens) (UniProt P04637)", "CAT": "inactive"}
{"COMPOUND": "CC(=O)O[C@@H]1CC2CCC1(C)C2(C)C (some centres not stated)", "TARGET_OR_TEST_SYSTEM": "Cellular tumor antigen p53 (Homo sapiens) (UniProt P04637)", "CAT": "inactive"}
{"COMPOUND": "O=CCc1ccccc1", "TARGET_OR_TEST_SYSTEM": "Cellular tumor antigen p53 (Homo sapiens) (UniProt P04637)", "CAT": "inactive"}
{"COMPOUND": "CCCCCCCCCCCCCCCC(=O)OC/C=C(C)/C=C/C=C(C)/C=C/C1=C(C)CCCC1(C)C", "TARGET_OR_TEST_SYSTEM": "Cellular tumor antigen p53 (Homo sapiens) (UniProt P04637)", "CAT": "inactive"}
{"COMPOUND": "CCOC(=O)COC(=O)c1cc(Oc2ccc(C(F)(F)F)cc2Cl)ccc1[N+](=O)[O-]", "TARGET_OR_TEST_SYSTEM": "Cellular tumor antigen p53 (Homo sapiens) (UniProt P04637)", "CAT": "inactive"}
{"COMPOUND": "CCC1(C)NC(=O)NC1=O (configuration not stated)", "TARGET_OR_TEST_SYSTEM": "Cellular tumor antigen p53 (Homo sapiens) (UniProt P04637)", "CAT": "inactive"}
